Recorded values, source ChEMBL document CHEMBL4811250.

assay: Tmax in CD1 mouse plasma at 30 mg/kg, po measured up to 24 hrs by LC-MS/MS analysis
Assay type: ADME, organism-based
reportedEndpoint: Tmax (h)
Output spec: scalar in h, unitless text.

Item under review: `CCc1ccc(Cl)cc1-n1c(C=C(C)C)c(C(=O)N2CCNCC2)cc(-c2nc(-c3ccc(Cl)cc3)cs2)c1=O` . Reported Tmax?
4

====

assay: Drug level in human U87MG cells expressing IDH1 R132H mutation transfected in NCr mouse plasma at 30 mg/kg, po measured after 36 hrs by LC-MS/MS analysis
Format: ADME, organism-based, U-87MG ATCC
setupConditions: read-out: Drug uptake
reportedEndpoint: concentration at 36 h (µM)
Output spec: scalar in µM, unitless text.

Item under review: `CCc1ccc(Cl)cc1-n1c(C=C(C)C)c(C(=O)N2CCNCC2)cc(-c2nc(-c3ccc(Cl)cc3)cs2)c1=O` . Reported concentration at 36 h?
7.2
